# assay_protocol: Plasma pharmacokinetics and brain distribution
# Type: in vivo
# protocol_conditions: male, C57BL/6, mouse, plasma, iv, 2 mg/kg
So I've got a bunch of molecules here, and I need their Cmax values.
Give the value, in units of ng/mL, as a plain number.

Lookup result for "COc1ccc(Br)c(CNc2cccnc2)c1" ; measured Cmax: 1920

The reported value for "CC(C)c1ccc(CNc2cccc(-c3nnc[nH]3)c2)cc1" in terms of Cmax is 1300

// sample "Clc1ccc(CNc2cccc(-c3nnc[nH]3)c2)c(Br)c1" , its Cmax was 1950

====

# tested_target: hMT2 (Homo sapiens, UniProt P49286)
# Sequence (P49286 1-362): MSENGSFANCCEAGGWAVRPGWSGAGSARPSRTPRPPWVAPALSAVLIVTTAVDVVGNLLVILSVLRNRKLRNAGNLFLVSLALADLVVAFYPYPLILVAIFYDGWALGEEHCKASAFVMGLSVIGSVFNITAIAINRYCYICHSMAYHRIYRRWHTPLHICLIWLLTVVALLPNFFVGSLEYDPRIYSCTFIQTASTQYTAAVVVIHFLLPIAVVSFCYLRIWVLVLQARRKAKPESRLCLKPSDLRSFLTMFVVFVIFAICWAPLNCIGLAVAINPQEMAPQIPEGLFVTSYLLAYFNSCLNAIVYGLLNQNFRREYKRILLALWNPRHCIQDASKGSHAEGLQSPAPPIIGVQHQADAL
# assay_protocol: cell-based
# Type: cell-based
# protocol_conditions: pEC50 MT2 (IA), inverse agonist; as summarised in PK table
measured_property: EC50 (nM)
API: value field is a number in nM; no unit string.

Record "CC(C)c1ccc(CNc2cccc(-c3nnc[nH]3)c2)cc1" , field EC50: 631

====

# assay_protocol: Plasma pharmacokinetics and brain distribution
# Type: in vivo
# protocol_conditions: male, C57BL/6, mouse, plasma, iv, 2 mg/kg
measured_property: clearance (mL/min/kg)
Numeric answer only, unit mL/min/kg assumed.

The value of clearance measured for the molecule CC(C)c1ccc(CNc2cccc(-c3nnc[nH]3)c2)cc1 [ZINC157673384] turned out to be 58.5

Record summary for Clc1ccc(CNc2cccc(-c3nnc[nH]3)c2)c(Br)c1 [ZINC555417447] : reported clearance = 67.1

Consider COc1ccc(Br)c(CNc2cccnc2)c1 [ZINC128734226] . Its measured clearance is 118
